TGI values by entry
Test system: NCI-H522 lung
Assay: NCI tumour cell line growth inhibition, 48 h
Value kind: TGI

>>> df
                                   compound    result
0  Cn1c2ccccc2c(=O)c2c(O)cc3c(c21)C=CC(C)(C)O3   > 25 µM
1  C=CC1CN(C(=O)OCC)N(C(=O)OCC)C1CCc1ccccc1 (stereo not given)  > 100 µM
2  CCCCCCCCCOCC(COP(=O)([O-])OCC[N+](C)(C)C)OC (stereo not given)  > 100 µM
3  CN(C)c1c(C2OC(CO)C(O)C2O)c(=O)c1=O (stereo not given)  > 100 µM
4  NC1CCC(N(CC(=O)O)CC(=O)O)C(N(CC(=O)O)CC(=O)O)C1 (stereo not given)  > 100 µM

* * *

Test system: MDA-N
Assay: NCI tumour cell line growth inhibition, 48 h
Label Condition met for high-side TGI (at or above 30 µM) and Condition not met for low-side TGI (below it).

Molecule	Class name
COC(=O)/C=C1/OC(c2ccccc2)=C(C)C1=O	Condition not met
CCc1nc2ccc(N=Nc3c(O)ccc4ccccc34)cc2[nH]1	Condition met
O=C(NNC(=S)NC1CCCCC1)C12CC3CC(CC(C3)C1)C2	Condition met
CN(CCCNC(=O)c1cn(C)c2c1Cc1ccccc1-2)CCCNC(=O)c1cn(C)c2c1Cc1ccccc1-2	Condition not met
Cc1cc(=O)oc2cc(OCC(O)COC(C)C)ccc12 (configuration not stated)	Condition met
O=[N+]([O-])c1ccc(-n2nc3ccc4c(no[n+]4[O-])c3n2)cc1	Condition met
O=C(/C=C/c1ccccc1)Nc1ccccc1SCCCCl	Condition not met
Cc1c(N=C/C=C/c2ccccc2)c(=O)n(-c2ccccc2)n1C	Condition met
O=C1CCc2ccc(O)c(c2)Oc2ccc(cc2)C(Sc2ccccc2)CCO1 (configuration not stated)	Condition met
Cc1cc2nc3ccccc3n2c2nc(N)ccc12	Condition met

* * *

Listed here: items and their measured TGI.
System: A498 renal
Assay: NCI tumour cell line growth inhibition, 48 h
Value kind: TGI

>>> df
                                    molecule     result
 0             Cc1cc2nc3ccccc3n2c2nc(N)ccc12   > 100 µM
 1  OC(CN(CCCl)CCCl)C(O)C(O)C(O)CN(CCCl)CCCl (centres undefined)   > 100 µM
 2               COc1ccc(OC)c2c1C=CC(Br)=CC2     > 1 µM
 3             Cc1ccc2nc(C(C)C)c(=O)[nH]c2c1   > 100 µM
 4  N#CC(C(=O)/C(=N\NC(N)=O)C(C#N)c1ccccc1)c1ccccc1 (centres undefined)   > 100 µM
 5  O=C(CSCC(=O)N/N=C\c1cccc([N+](=O)[O-])c1)N/N=C\c1cccc([N+](=O)[O-])c1   > 100 µM
 6         O=C(/C=C/c1ccccc1)Nc1ccccc1SCCCCl  > 29.5 µM
 7  CC(C)=CCC[C@@H](C)C1=C(O)C(Nc2ccccc2Cl)=C(C)C(=O)C1=O  > 56.9 µM
 8  CCOC(=O)c1nc2ccc(C(F)(F)F)cc2nc1NCc1ccc(OC)c(OC)c1   > 100 µM
 9  c1ccc(CNCCN(CCNCc2ccccn2)Cc2ccc3ccccc3c2)nc1    3.71 µM
10  O=[S@]1c2ccc3ccccc3c2N[C@@H]2[C@H]1[C@H]1C=C[C@@H]2C1   > 100 µM
11  CN(CCCNC(=O)c1cn(C)c2c1Cc1ccccc1-2)CCCNC(=O)c1cn(C)c2c1Cc1ccccc1-2    26.8 µM
12  O=C1CCc2ccc(O)c(c2)Oc2ccc(cc2)C(Sc2ccccc2)CCO1 (centres undefined)    31.8 µM
13  O=C(NNC(=S)NC1CCCCC1)C12CC3CC(CC(C3)C1)C2   > 100 µM
14   Cc1ccc2c(=O)cc(-c3ccc4ccccc4c3)[nH]c2n1    15.5 µM
15                 COC(=O)CCNC(=O)OCc1ccccc1   > 100 µM
16  CCCCCc1c(CCCC)c(=O)[nH]c2nc(NC(=O)CCCC)ccc12   > 100 µM
17  COC(=O)c1oc2c(C(=O)/C=C/c3ccc(OC)cc3)c(OCCN(C)C)ccc2c1C    22.6 µM
18  Cn1c2ccccc2c(=O)c2c(O)cc3c(c21)C=CC(C)(C)O3    > 25 µM
19         Cc1cc(=O)n(-c2cc3cccccc-3n2)[nH]1    46.9 µM
20       Cc1cc(C)c(-c2c(N)cc(Br)cc2Br)c(N)c1    14.4 µM
21  CCCCCCCCCOCC(COP(=O)([O-])OCC[N+](C)(C)C)OC (centres undefined)   > 100 µM
22  COc1ccccc1/C=C/C1=NN(c2cccc(S(=O)(=O)O)c2)C2(C1)C(Cl)C(=O)N2c1nc2ccccc2s1 (centres undefined)   > 100 µM
23  C/C(=C(\c1ccc(OCCN2CCCCCC2)cc1)c1ccc(OC(=O)c2ccccc2)cc1)c1ccc(Cl)cc1    8.09 µM
24  CC(C)CC(N)C(=O)Nc1ccc2ccccc2c1 (centres undefined)   > 100 µM
25  CCC1(c2ccc(N3C(=O)c4cc(OC)c(OC)cc4C3=O)cc2)CCC(=O)NC1=O (centres undefined)    > 10 µM
26  CCOC(=O)c1nc2cc(C(F)(F)F)ccc2nc1Nc1ccc(C(=O)OC)s1    81.6 µM
27  O=C(Nc1ccc(Cl)cc1Cl)OC(Cn1cncn1)c1ccc(Cl)cc1Cl (centres undefined)    34.2 µM
28  CN(C)c1c(C2OC(CO)C(O)C2O)c(=O)c1=O (centres undefined)   > 100 µM
29  Nc1c(Cl)ncnc1NCCCCCCCCCCCCNc1ncnc(Cl)c1N   > 100 µM
30  C=CCC(N[C@@H](CO)c1ccccc1)c1cn(C(=O)OCC)c2ccccc12 (some centres undefined)    61.6 µM
31       Cc1ccc2c(=O)cc(-c3ccc(C)s3)[nH]c2n1  > 70.9 µM
32  CSc1nc2c(c(=O)n1C)N=C(c1ccc([N+](=O)[O-])cc1)CC(c1ccccc1)N2 (centres undefined)   > 100 µM
33  Cn1cc2ccccc2c1-c1nc(F)nc(Oc2ccc3c(c2)CC[C@@H]2C3CC[C@@]3(C)C2C[C@H](O)[C@@H]3O)n1 (some centres undefined)      47 µM
